Recorded values, source ChEMBL document CHEMBL1201862.

# Tested on: NCI-H460
# Measurement description: NCI tumour cell line growth inhibition, 48 h
The source made the active and inactive calls. No stated cut-off is given here; in the data, active = GI50 up to about 1.1 µM and inactive = higher.
Classes used: True = active, False = inactive

Compound	Label class
COc1cc(/N=N\c2cccc(S(=O)(=O)O)c2)ccc1/N=N\c1ccc(/C=C/c2ccc(-n3on3-c3ccc(/C=C/c4ccc(/N=N/c5ccc(/N=N\c6cccc(S(=O)(=O)O)c6)cc5OC)cc4S(=O)(=O)O)c(S(=O)(=O)O)c3)cc2S(=O)(=O)O)c(S(=O)(=O)O)c1	False
Cc1ccc(-c2cc[n+]3c(n2)oc2ccccc23)cc1	False
CC(=O)Oc1ccc2cc(-c3ccccc3OC(C)=O)c(=O)oc2c1	False
CCOC(=O)C=C1CCN(C(=O)c2ccccc2)CC1	False
CC(=O)c1c2c(cc3c1CC1(C3)Cc3ccc4c(c3C1=O)CCC4)CCC2 (centres undefined)	False
COc1ccc(NC2=NCCO2)c2c1CCCC2	False
O=[N+]([O-])C=C(c1ccc(Cl)cc1)c1ccc(Cl)cc1	False
COC(=O)C(C(=O)C(=O)Nc1ccccc1OC)c1csc(-n2nc(-c3ccccc3)cc2-c2ccccc2)n1 (centres undefined)	False
Cc1ccc(C)c(NC(=O)CCC(=O)CC(=O)C(C)(C)C)c1	False
COc1ccc(/N=C2\C(=N/c3ccc(OC)cc3)N(c3ccc(N(C)C)cc3)C(=S)N2c2ccc(OC)cc2)cc1	False
Cc1ccc(C(=O)C#Cc2cn(C3CC(O)C(CO)O3)c(=O)[nH]c2=O)cc1 (centres undefined)	False
C=C(C)C1CC[C@@](C)(O)[C@H](C#N)C1 (some centres undefined)	False
ONc1ncnc2[nH]cnc12	False
COC(=O)N/N=C(\C)C(CN1CCCCC1)C(C1=C(O)c2ccccc2OC1)c1ccccc1 (centres undefined)	False
O=C(O)c1[nH]c(C(=O)O)c(CC(F)(F)C(F)(F)C(F)(F)F)c1CC(F)(F)C(F)(F)C(F)(F)F	False
CN(C)C12C=CC=CC3=C(c4ccccc4)C(c4ccccc4)=C(c4ccccc4)C31c1ccccc1C2 (centres undefined)	False
CCOC(=O)C1=C(C)N(Cc2ccc(Cl)cc2Cl)C2(O)C(OC)CC(=O)C3C(=O)N(c4ccccc4)C(=O)C132 (centres undefined)	False
CC[C@@]1(O)C(=O)OCc2c1cc1n(c2=O)Cc2c-1nc1ccccc1c2/C=N/c1ccccc1N[C@@H]1c2cc3c(cc2[C@@H](c2cc(OC)c(O)c(OC)c2)[C@H]2C(=O)OC[C@@H]21)OCO3	True
Cc1cc(S(=O)(=O)NC2=Nc3cccc4cccc(c34)N2)c(S)cc1Cl	False
